I'd appreciate it if you could supply pIC50 values for the items below.
Molecular target: CDK12/CycK (Homo sapiens, UniProt Q9NYV4)
Sequence (Q9NYV4 with tags, fused parts or gaps): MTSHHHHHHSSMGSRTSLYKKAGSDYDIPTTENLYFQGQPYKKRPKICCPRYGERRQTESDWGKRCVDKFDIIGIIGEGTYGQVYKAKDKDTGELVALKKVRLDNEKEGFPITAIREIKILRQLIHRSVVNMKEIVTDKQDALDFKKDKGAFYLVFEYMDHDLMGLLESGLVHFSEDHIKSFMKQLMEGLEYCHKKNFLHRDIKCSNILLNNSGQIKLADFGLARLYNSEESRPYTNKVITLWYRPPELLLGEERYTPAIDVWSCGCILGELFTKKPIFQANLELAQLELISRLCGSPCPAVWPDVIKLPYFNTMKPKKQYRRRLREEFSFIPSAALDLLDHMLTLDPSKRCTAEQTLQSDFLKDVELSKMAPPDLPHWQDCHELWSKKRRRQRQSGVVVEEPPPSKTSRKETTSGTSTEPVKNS
Sequence (O75909 1-300 partner limits assumed): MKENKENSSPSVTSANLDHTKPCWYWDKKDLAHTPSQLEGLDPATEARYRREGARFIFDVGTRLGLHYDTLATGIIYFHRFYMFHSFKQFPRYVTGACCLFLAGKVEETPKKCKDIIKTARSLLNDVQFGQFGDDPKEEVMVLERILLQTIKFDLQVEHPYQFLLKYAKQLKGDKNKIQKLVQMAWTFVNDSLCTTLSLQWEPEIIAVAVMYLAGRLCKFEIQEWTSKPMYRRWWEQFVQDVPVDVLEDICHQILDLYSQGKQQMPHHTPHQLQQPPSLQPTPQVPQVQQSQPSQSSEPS
Test: CDK12/CycK high ATP kinase assay (TR-FRET, 2 mM ATP)
Settings: 2 mM ATP (high ATP); median; read-out: CDK12/CyclinK, 2 mM ATP (high ATP), IC50-[mol/l] (median)
Procedure: In the context of the present invention, the term “IC50 CDK12 hATP” refers to the IC50 values obtained according to the assay described in this section (2.2) herein below, i.e. the IC50 values for the inhibition of CDK12 at high (2 mM) ATP. […]
Give bare numbers, as −log10 of the molar value.

Use these answered entries as a reference point.
[[record]]
compound = "Brc1cnn2c(NCc3nc4ccccc4[nH]3)nc(N3CCN4CCC3CC4)nc12 [Example 349]"
target_or_system = "CDK12/CycK (Homo sapiens, UniProt Q9NYV4)"
readout_name = "pIC50"
reported_measurement = 5.06

[[record]]
compound = "CN(CC(C)(C)O)c1nc(NCc2nc3c(F)c(F)ccc3[nH]2)n2ncc(C3CC3)c2n1 [Example 292]"
target_or_system = "CDK12/CycK (Homo sapiens, UniProt Q9NYV4)"
readout_name = "pIC50"
reported_measurement = 6.18

[[record]]
compound = "CN1CCN(c2nc(NCc3nc4cc(F)c(F)cc4[nH]3)n3ncc(Br)c3n2)CC1 [Example 346]"
target_or_system = "CDK12/CycK (Homo sapiens, UniProt Q9NYV4)"
readout_name = "pIC50"
reported_measurement = 4.91

[[record]]
compound = "FC1(F)CC1c1cnn2c(NCc3nc4ccccc4[nH]3)nc(N3CCOCC3)nc12 (centres unmarked) [Example 279]"
target_or_system = "CDK12/CycK (Homo sapiens, UniProt Q9NYV4)"
readout_name = "pIC50"
reported_measurement = 4.85


For every item below, please supply its pIC50.
1. NC12CC1CN(c1nc(NCc3nc4ccccc4[nH]3)n3ncc(Br)c3n1)C2 (centres unmarked) [Example 258]
2. CC(C)c1cnn2c(NCc3ncc(-c4ccccc4)[nH]3)nc(N3CCN(C)CC3)nc12 [Example 31]
3. Brc1cnn2c(NCc3nnc(-c4ccccn4)[nH]3)nc(N3CCOCC3)nc12 [Example 54]

1. 5.33
2. 4.87
3. 5.25

----------
Test system: CAL-120, human breast adenocarcinoma cells
Test: Proliferation assay CAL-120 (crystal violet, 4 days)
Format: cell-based
Conditions: Homo sapiens, CAL-120, 96 h, CAL-120 cells, median, read-out: Prolif-CAL-120, IC50-[mol/l] (median)
Readout Name: log10(IC50) (log10 of the value in nM)
All values: log10 IC50 [nM].

Parameters: items (list). Returns: log10(IC50) for each item.
1. FC(F)(F)c1cnn2c(NCc3nc4cc(Cl)ccc4[nH]3)nc(N3CCOCC3)nc12
2. CN(CC(C)(C)O)c1nc(NCc2nc3cc(OC(F)(F)F)ccc3[nH]2)n2ncc(Br)c2n1
3. Cc1cc2nc(CNc3nc(N4CC5CCC(C4)N5)nc4c(Br)cnn34)[nH]c2cc1C

[0.59, 1.62, 0.15]

I have 5 compounds here; please give me log10(IC50) for each one.
1. Cc1cnn2c(NCc3nc4c(F)c(F)ccc4[nH]3)nc(N3CC4CCC(C3)N4)nc12
2. CC(C)CNc1nc(NCc2nc3ccccc3[nH]2)n2ncc(Br)c2n1
3. Cc1cnn2c(NCc3nc4ccccc4[nH]3)nc(N3CCN(C)CC3)nc12
4. CN1CCN(c2nc(NCc3nc4cc(Cl)c(Cl)cc4[nH]3)n3ncc(Br)c3n2)CC1
5. CN1CCN(c2nc(NCc3nc4cc(OC(F)(F)F)ccc4[nH]3)n3ncc(Br)c3n2)CC1

1. 0.72
2. 1.90
3. 1.74
4. 0.39
5. 1.90

----------
Provide the reported log10 of DC50 of each item.
Molecular target: CDK12 (nuclear staining in CAL-120 cells) (Homo sapiens, UniProt Q9NYV4)
Construct: endogenous in cells; host or cells: CAL-120 human breast cancer cells (DSMZ ACC 459)
Sequence (Q9NYV4 whole entry): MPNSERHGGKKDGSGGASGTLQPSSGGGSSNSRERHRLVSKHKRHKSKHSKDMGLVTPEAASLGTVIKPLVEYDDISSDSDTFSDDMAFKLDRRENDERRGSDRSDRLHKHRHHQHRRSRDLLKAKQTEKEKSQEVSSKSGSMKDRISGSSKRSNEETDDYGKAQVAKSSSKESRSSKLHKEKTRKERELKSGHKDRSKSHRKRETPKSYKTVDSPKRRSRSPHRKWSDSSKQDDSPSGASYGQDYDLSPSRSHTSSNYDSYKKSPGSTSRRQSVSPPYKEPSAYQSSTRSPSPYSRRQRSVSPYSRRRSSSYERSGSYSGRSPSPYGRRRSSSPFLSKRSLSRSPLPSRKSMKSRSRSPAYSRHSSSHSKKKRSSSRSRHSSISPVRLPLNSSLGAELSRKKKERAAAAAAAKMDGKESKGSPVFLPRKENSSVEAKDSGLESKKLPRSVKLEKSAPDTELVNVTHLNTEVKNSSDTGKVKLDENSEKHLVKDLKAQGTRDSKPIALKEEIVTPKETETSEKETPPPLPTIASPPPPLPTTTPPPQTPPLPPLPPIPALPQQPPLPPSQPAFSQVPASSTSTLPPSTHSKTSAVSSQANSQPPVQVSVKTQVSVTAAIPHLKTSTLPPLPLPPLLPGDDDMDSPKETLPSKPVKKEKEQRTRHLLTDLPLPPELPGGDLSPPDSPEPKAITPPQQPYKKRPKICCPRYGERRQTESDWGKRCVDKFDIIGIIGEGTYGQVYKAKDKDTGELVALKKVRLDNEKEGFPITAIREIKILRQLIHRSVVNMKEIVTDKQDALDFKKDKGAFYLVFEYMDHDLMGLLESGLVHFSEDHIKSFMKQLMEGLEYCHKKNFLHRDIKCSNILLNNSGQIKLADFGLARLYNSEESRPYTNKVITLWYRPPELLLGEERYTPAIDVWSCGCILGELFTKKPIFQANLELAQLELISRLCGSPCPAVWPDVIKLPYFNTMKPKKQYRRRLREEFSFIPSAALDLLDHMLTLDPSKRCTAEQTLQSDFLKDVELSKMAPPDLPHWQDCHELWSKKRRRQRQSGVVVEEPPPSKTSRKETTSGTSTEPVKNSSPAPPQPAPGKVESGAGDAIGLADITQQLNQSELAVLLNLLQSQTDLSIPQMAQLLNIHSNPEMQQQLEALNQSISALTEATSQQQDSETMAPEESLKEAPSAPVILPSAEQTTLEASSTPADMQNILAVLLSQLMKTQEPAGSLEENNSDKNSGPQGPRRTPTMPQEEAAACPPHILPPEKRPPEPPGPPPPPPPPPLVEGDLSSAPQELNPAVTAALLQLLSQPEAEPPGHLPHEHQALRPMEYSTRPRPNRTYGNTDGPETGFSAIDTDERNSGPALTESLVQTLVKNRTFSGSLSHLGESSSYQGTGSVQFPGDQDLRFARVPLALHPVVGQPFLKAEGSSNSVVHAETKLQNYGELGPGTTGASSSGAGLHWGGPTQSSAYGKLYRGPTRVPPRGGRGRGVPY
Sequence (O75909 whole entry partner): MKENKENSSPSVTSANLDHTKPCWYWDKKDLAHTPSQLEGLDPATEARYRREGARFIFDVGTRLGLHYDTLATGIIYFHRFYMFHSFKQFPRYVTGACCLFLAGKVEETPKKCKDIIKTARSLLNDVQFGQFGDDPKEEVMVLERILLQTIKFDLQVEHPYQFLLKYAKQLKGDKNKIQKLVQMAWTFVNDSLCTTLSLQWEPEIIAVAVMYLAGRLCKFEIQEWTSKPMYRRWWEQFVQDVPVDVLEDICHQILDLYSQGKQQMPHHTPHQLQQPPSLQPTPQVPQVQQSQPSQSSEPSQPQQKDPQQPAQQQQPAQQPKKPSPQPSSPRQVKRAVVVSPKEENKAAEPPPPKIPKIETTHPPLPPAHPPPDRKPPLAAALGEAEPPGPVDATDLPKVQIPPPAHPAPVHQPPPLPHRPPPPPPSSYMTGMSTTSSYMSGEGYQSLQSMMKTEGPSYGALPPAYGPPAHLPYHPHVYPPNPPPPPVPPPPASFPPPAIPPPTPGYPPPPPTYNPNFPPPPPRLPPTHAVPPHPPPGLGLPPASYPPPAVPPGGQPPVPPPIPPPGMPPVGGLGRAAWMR
Test: CDK12 nuclear protein level: immunofluorescence/high content analysis (CAL-120)
Type: cell-based
Conditions: CAL-120 cells, 24 h, immunofluorescence; 50% reduction of nuclear CDK12 staining intensity; median; read-out: CDK12 degradation IF, DC50- [mol/l] (median)
Give log10 of DC50, with DC50 taken in nM.

Sample records with log10 of DC50:
[[record]]
chemical_structure = "Fc1cccc2[nH]c(CNc3nc(N4CCN5CCC4CC5)nc4c(C(F)(F)F)cnn34)nc12"
reported_measurement = 0.08

[[record]]
chemical_structure = "Fc1c(Cl)ccc2[nH]c(CNc3nc(N4CC5CCC(C4)N5)nc4c(C5CC5)cnn34)nc12"
reported_measurement = 0.64

[[record]]
chemical_structure = "Fc1cccc2[nH]c(CNc3nc(N4CCNCC4)nc4c(C5CC5)cnn34)nc12"
reported_measurement = -0.14

[[record]]
chemical_structure = "C[C@H]1CN(c2nc(NCc3nc4ccccc4[nH]3)n3ncc(Br)c3n2)CCN1"
reported_measurement = 0.04

[[record]]
chemical_structure = "Fc1ccc2[nH]c(CNc3nc(N4C[C@H]5CC[C@@H](C4)N5)nc4c(C5CC5)cnn34)nc2c1F"
reported_measurement = 0.44

[[record]]
chemical_structure = "CC(C)c1cnn2c(NCc3nc4ccccc4[nH]3)nc(Nc3ccncc3)nc12"
reported_measurement = 1.16


For each of the compounds below, state log10 of DC50.
1. COC(=O)C1CCN(c2nc(NCc3nc4ccccc4[nH]3)n3ncc(Br)c3n2)CC1
2. Brc1cnn2c(NCc3nc4ccccc4[nH]3)nc(N3C[C@@H]4C[C@H]3CN4)nc12

1. 1.32
2. 0.23

----------
Biological target: CDK12 (nuclear staining in CAL-120 cells) (Homo sapiens, UniProt Q9NYV4)
Construct: endogenous in cells; host or cells: CAL-120 human breast cancer cells (DSMZ ACC 459)
Experiment: CDK12 nuclear protein level: immunofluorescence/high content analysis (CAL-120)
Type: cell-based
Conditions: ratio of IC50 CDK12 high ATP kinase assay to DC50 CDK12 degradation (IF, CAL-120)
So I've got a bunch of molecules here, and I need their (IC50 CDK12 high ATP) to (Degradation DC50 CDK12) ratio values.

Some molecules with recorded (IC50 CDK12 high ATP) to (Degradation DC50 CDK12) ratio:
[[record]]
molecule = "CN1CCN(c2nc(NCc3nc4ccccc4[nH]3)n3ncc(Br)c3n2)C(CO)C1 (stereo not shown) [Example 155]"
reported_measurement = 79

[[record]]
molecule = "CN(CC(C)(C)O)c1nc(NCc2nc3c(F)cccc3[nH]2)n2ncc(Cl)c2n1"
reported_measurement = 190

[[record]]
molecule = "Cc1ccnc2[nH]c(CNc3nc(N4CCOCC4)nc4c(Br)cnn34)nc12"
reported_measurement = 681

[[record]]
molecule = "Fc1ccc2[nH]c(CNc3nc(N4CC5CCC(C4)N5)nc4c(Cl)cnn34)nc2c1F.O=CO"
reported_measurement = 622

[[record]]
molecule = "CC[C@@H](CO)Nc1nc(NCc2nc3ccccc3[nH]2)n2ncc(Br)c2n1"
reported_measurement = 231

[[record]]
molecule = "Fc1ccc2[nH]c(CNc3nc(N4CCOCC4)nc4c(C5CC5)cnn34)nc2c1F"
reported_measurement = 581

[[record]]
molecule = "CC(C)c1cnn2c(NCc3nnc(-c4ccccc4)[nH]3)nc(N(C)CC(C)(C)O)nc12"
reported_measurement = 113

[[record]]
molecule = "Fc1ccc2[nH]c(CNc3nc(N4C[C@@H]5CCCN[C@@H]5C4)nc4c(C5CC5)cnn34)nc2c1"
reported_measurement = 10852

[[record]]
molecule = "Clc1ccc2[nH]c(CNc3nc(N4CCOCC4)nc4c(Br)cnn34)nc2c1"
reported_measurement = 2160

[[record]]
molecule = "COc1cccc2[nH]c(CNc3nc(N4C[C@@H](C)N[C@@H](C)C4)nc4c(C5CC5)cnn34)nc12"
reported_measurement = 3798


# batch size: 6; output (IC50 CDK12 high ATP) to (Degradation DC50 CDK12) ratio per entry
1. Cc1cccc2[nH]c(CNc3nc(N4CCOCC4)nc4c(Br)cnn34)nc12
2. C[C@@]1(O)CCN(c2nc(NCc3nc4ccccc4[nH]3)n3ncc(Br)c3n2)C1 (single isomer, unassigned)
3. Cc1ccc2[nH]c(CNc3nc(N4C[C@H]5C[C@@H]4CO5)nc4c(Br)cnn34)nc2c1
4. Fc1ccc(-c2nnc(CNc3nc(N4CCOCC4)nc4c(Br)cnn34)[nH]2)cc1
5. c1ccc2[nH]c(CNc3nc(N4CCNCC4)nc4c(C5CC5)cnn34)nc2c1
6. Cc1ccc(-c2nnc(CNc3nc(N4CCOCC4)nc4c(Br)cnn34)[nH]2)cc1F

2033
>419
15180
310
10678
28
